Test system: Kidney
Assay: Biodistribution in kidney of C57BL/6J mouse bearing mouse B16F0 cells at 0.37 to 1.85 MBq, iv after 16 hrs by gamma counting method
Assay type: ADME, organism-based
Settings: in vivo
quantity: Drug uptake (% ID/g)

[A] O=C(c1ccc2cccnc2n1)N1CCN(Cc2ccc([123I])cc2)CC1
[B] O=C(CN1Cc2ccccc2C1=O)N1C[C@H]2CN(Cc3ccc([123I])cc3)C[C@H]2C1
When the recorded Drug uptake values are compared, which is smaller: that of A or that of B ? Use the label to indicate which entry you chose.
B

[P] O=C(c1ccc2c(n1)NCCC2)N1CCN(Cc2ccc([123I])cc2)CC1
[Q] O=C(CN1Cc2ccccc2C1=O)NC1CCN(Cc2ccc([123I])cc2)CC1
Just curious, which one has the larger Drug uptake reading, P or Q ? Your answer should be the label attached to the chosen record.
Q

----------
Assay: Ratio of AUC in tumor to eyes of C57BL/6J mouse bearing mouse B16F0 cells at 0.37 to 1.85 MBq, iv by gamma counting method
Format: ADME, organism-based
Settings: in vivo
quantity: Ratio

> print(dat)
                                smiles.data  assay.value
1  O=C(CN1Cc2ccccc2C1=O)N1C[C@H]2CN(Cc3ccc([123I])cc3)C[C@H]2C1         0.42
2  O=C(c1ccc2cccnc2n1)N1CCN(Cc2ccc([123I])cc2)CC1         0.47
3  O=C(CN1Cc2ccccc2C1=O)NC1CCN(Cc2ccc([123I])cc2)CC1         0.44
4  O=C(c1ccc2c(n1)NCCC2)N1CCN(Cc2ccc([123I])cc2)CC1         0.52

----------
System: Liver
Assay: Biodistribution in liver of C57BL/6J mouse bearing mouse B16F0 cells at 0.37 to 1.85 MBq, iv after 3 hrs by gamma counting method
Format: ADME, organism-based
Conditions: in vivo
quantity: Drug uptake (% ID/g)

Examples with answers:
> print(dat)
                                smiles.data  assay.value
1  O=C(c1ccc2c(n1)NCCC2)N1CCN(Cc2ccc([123I])cc2)CC1         13.2
2  O=C(CN1Cc2ccccc2C1=O)NC1CCN(Cc2ccc([123I])cc2)CC1         38.8

[I] O=C(CN1Cc2ccccc2C1=O)N1C[C@H]2CN(Cc3ccc([123I])cc3)C[C@H]2C1
[II] O=C(c1ccc2cccnc2n1)N1CCN(Cc2ccc([123I])cc2)CC1
Param metric = Drug uptake; output whichever of I , II has the minimum value. Returns: label corresponding to the selected item.
I
(I: 5.6 % ID/g, II: 13.4 % ID/g)

----------
System: Mus musculus
Assay: Biodistribution in thyroid gland of C57BL/6J mouse bearing mouse B16F0 cells at 0.37 to 1.85 MBq, iv after 48 hrs by gamma counting method
Assay type: ADME, organism-based
Conditions: in vivo
quantity: Drug uptake (% ID/g)

> print(dat)
                                smiles.data  quantity.unit  assay.value
1  O=C(c1ccc2cccnc2n1)N1CCN(Cc2ccc([123I])cc2)CC1         % ID/g          5.3
2  O=C(CN1Cc2ccccc2C1=O)NC1CCN(Cc2ccc([123I])cc2)CC1         % ID/g          2.4

[P] O=C(c1ccc2c(n1)NCCC2)N1CCN(Cc2ccc([123I])cc2)CC1
[Q] O=C(CN1Cc2ccccc2C1=O)N1C[C@H]2CN(Cc3ccc([123I])cc3)C[C@H]2C1
Just tell me: smaller Drug uptake value, P or Q ? Give the label of your selection.
P

----------
Test system: Mus musculus
Assay: Biodistribution in eyes of C57BL/6J mouse bearing mouse B16F0 cells at 0.37 to 1.85 MBq, iv after 24 hrs by gamma counting method
Format: ADME, organism-based, Eye
Settings: in vivo
quantity: Drug uptake (% ID/g)

> print(dat)
                                smiles.data     quantity  assay.value
1  O=C(c1ccc2c(n1)NCCC2)N1CCN(Cc2ccc([123I])cc2)CC1  Drug uptake         30.8

[A] O=C(c1ccc2cccnc2n1)N1CCN(Cc2ccc([123I])cc2)CC1
[B] O=C(CN1Cc2ccccc2C1=O)N1C[C@H]2CN(Cc3ccc([123I])cc3)C[C@H]2C1
Higher Drug uptake: A or B ? Identify your pick by its label.
A
(A: 35.1 % ID/g, B: 18.4 % ID/g)

----------
System: Mus musculus
Assay: Biodistribution in large gastrointestinal tract of C57BL/6J mouse bearing mouse B16F0 cells at 0.37 to 1.85 MBq, iv after 1 hr by gamma counting method
Format: ADME, organism-based, Large intestine
Conditions: in vivo
quantity: Drug uptake (% ID/g)

> print(dat)
                                smiles.data  quantity.unit  assay.value
1  O=C(c1ccc2c(n1)NCCC2)N1CCN(Cc2ccc([123I])cc2)CC1         % ID/g          7.9

[P] O=C(CN1Cc2ccccc2C1=O)N1C[C@H]2CN(Cc3ccc([123I])cc3)C[C@H]2C1
[Q] O=C(CN1Cc2ccccc2C1=O)NC1CCN(Cc2ccc([123I])cc2)CC1
// select label with min value of measured Drug uptake from [ P , Q ] Reply with the label of the item you choose.
P
(P: 3.5 % ID/g, Q: 6.6 % ID/g)

----------
Experiment: Stability in eyes of C57BL/6J mouse bearing mouse B16F0 cells assessed as intact parent compound level at 0.37 to 1.85 MBq, iv after 3 hrs by radio-HPLC and radio-TLC method
Assay type: ADME, organism-based, Eye
Settings: in the assay text read “20 MBq” for “0.37 to 1.85 MBq”, read-out: Stability
quantity: remaining at 3 h (%)

Previously resolved entries follow.
> print(dat)
                                smiles.data  assay.value
1  O=C(c1ccc2c(n1)NCCC2)N1CCN(Cc2ccc([123I])cc2)CC1           60
2  O=C(CN1Cc2ccccc2C1=O)NC1CCN(Cc2ccc([123I])cc2)CC1           90

[P] O=C(CN1Cc2ccccc2C1=O)N1C[C@H]2CN(Cc3ccc([123I])cc3)C[C@H]2C1
[Q] O=C(c1ccc2cccnc2n1)N1CCN(Cc2ccc([123I])cc2)CC1
Of P and Q , whose reported remaining at 3 h is the larger number? Please identify the chosen entry by its label.
P

----------
Tested on: Mus musculus
Assay: Biodistribution in eyes of C57BL/6J mouse bearing mouse B16F0 cells at 0.37 to 1.85 MBq, iv after 48 hrs by gamma counting method
Assay type: ADME, organism-based, Eye
Conditions: in vivo
quantity: Drug uptake (% ID/g)

Previously resolved entries follow.
> print(dat)
                                smiles.data        system     quantity  quantity.unit  assay.value
1  O=C(c1ccc2c(n1)NCCC2)N1CCN(Cc2ccc([123I])cc2)CC1  Mus musculus  Drug uptake         % ID/g           19
2  O=C(CN1Cc2ccccc2C1=O)NC1CCN(Cc2ccc([123I])cc2)CC1  Mus musculus  Drug uptake         % ID/g         38.7

[I] O=C(c1ccc2cccnc2n1)N1CCN(Cc2ccc([123I])cc2)CC1
[II] O=C(CN1Cc2ccccc2C1=O)N1C[C@H]2CN(Cc3ccc([123I])cc3)C[C@H]2C1
Dear colleague, could you let me know whether I or II has the lower recorded Drug uptake? Thanks. Please identify the chosen entry by its label.
II

----------
Tested on: Spleen
Test: Biodistribution in spleen of C57BL/6J mouse bearing mouse B16F0 cells at 0.37 to 1.85 MBq, iv after 16 hrs by gamma counting method
Type: ADME, organism-based
Settings: in vivo
quantity: Drug uptake (% ID/g)

> print(dat)
                                smiles.data  assay.value
1  O=C(CN1Cc2ccccc2C1=O)N1C[C@H]2CN(Cc3ccc([123I])cc3)C[C@H]2C1          0.2
2  O=C(c1ccc2c(n1)NCCC2)N1CCN(Cc2ccc([123I])cc2)CC1          0.3

[I] O=C(CN1Cc2ccccc2C1=O)NC1CCN(Cc2ccc([123I])cc2)CC1
[II] O=C(c1ccc2cccnc2n1)N1CCN(Cc2ccc([123I])cc2)CC1
Pick one: I or II . Which one has the lower reported Drug uptake? When you have decided, please share the label of that item.
II

----------
System: Kidney
Assay: Biodistribution in kidney of C57BL/6J mouse bearing mouse B16F0 cells at 0.37 to 1.85 MBq, iv after 24 hrs by gamma counting method
Assay type: ADME, organism-based
Conditions: in vivo
quantity: Drug uptake (% ID/g)

Would you please look over these solved cases?
> print(dat)
                                smiles.data  assay.value
1  O=C(c1ccc2c(n1)NCCC2)N1CCN(Cc2ccc([123I])cc2)CC1            1
2  O=C(c1ccc2cccnc2n1)N1CCN(Cc2ccc([123I])cc2)CC1          1.4

[I] O=C(CN1Cc2ccccc2C1=O)NC1CCN(Cc2ccc([123I])cc2)CC1
[II] O=C(CN1Cc2ccccc2C1=O)N1C[C@H]2CN(Cc3ccc([123I])cc3)C[C@H]2C1
Just curious, which one has the larger Drug uptake reading, I or II ? Reply with the label of the item you choose.
I
(I: 1.9 % ID/g, II: 0.5 % ID/g)

Ref: ChEMBL document CHEMBL3588831
